The measured values listed here are drawn from patent US5922748A.

Target: "5-HT1 -like" receptor mediating smooth muscle contraction (Oryctolagus cuniculus, UniProt P49144)
Construct: Right and left lateral saphenous veins were obtained from male New Zealand White Rabbits; from tissue; host or cells: rabbit lateral saphenous vein ring segments
Sequence (P49144 whole entry): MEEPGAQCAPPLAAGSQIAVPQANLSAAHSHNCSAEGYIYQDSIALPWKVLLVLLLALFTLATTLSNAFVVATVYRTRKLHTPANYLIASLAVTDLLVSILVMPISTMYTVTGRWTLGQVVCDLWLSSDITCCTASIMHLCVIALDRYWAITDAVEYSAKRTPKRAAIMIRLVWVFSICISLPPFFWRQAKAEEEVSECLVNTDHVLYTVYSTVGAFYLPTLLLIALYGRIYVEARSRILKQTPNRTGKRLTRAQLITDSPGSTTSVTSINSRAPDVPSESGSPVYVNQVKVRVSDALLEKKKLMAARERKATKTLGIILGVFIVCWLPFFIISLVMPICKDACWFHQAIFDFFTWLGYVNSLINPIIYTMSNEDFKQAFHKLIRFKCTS
Test: Rabbit Saphenous Vein Assay (contraction of isolated ring segments)
Format: cell-based, male New Zealand White Rabbits
Reported Kb values for a set of compounds
Number only, in nM; omit the unit.

These recorded examples may help you get a feel for the data.
COMPOUND STRUCTURE STRING	QUANTITATIVE READOUT
Cc1noc(-c2ccc3[nH]cc([C@H]4C[C@H](N(C)C)C4)c3c2)n1	955
CN(C)[C@H]1C[C@H](c2c[nH]c3ccc(CC(N)=O)cc32)C1	16600
CN(C)[C@H]1C[C@H](c2c[nH]c3ccc(Oc4ccccc4)cc32)C1	240

Consider now this further compound.
Inquiry: Quickly give me recorded Kb for CNS(=O)(=O)Cc1ccc2[nH]cc([C@H]3C[C@H](N(C)C)C3)c2c1
Reply text: 5620

----------
Target: "5-HT1 -like" receptor mediating smooth muscle contraction (Oryctolagus cuniculus, UniProt P49144)
Construct: Right and left lateral saphenous veins were obtained from male New Zealand White Rabbits; from tissue; host or cells: rabbit lateral saphenous vein ring segments
Assay: Rabbit Saphenous Vein Assay (contraction of isolated ring segments)
Assay type: cell-based, male New Zealand White Rabbits
Conditions: value in parentheses after pA50 in Table 1; rabbit saphenous vein; compared to 5-HT; read-out: (α)
REPORTED METRIC: Emax

MOLECULE	Emax
CN[C@H]1C[C@H](c2c[nH]c3ccc(C[C@H]4COC(=O)N4)cc32)C1	72%

Inquiry: Answer with the recorded Emax for the molecule listed here: CN(C)[C@H]1C[C@@H](c2c[nH]c3ccc(C[C@H]4COC(=O)N4)cc32)C1
Reply text: 29%

Inquiry: Give the reported value of Emax for this record: CN(C)[C@H]1C[C@H](c2c[nH]c3ccc(C[C@H]4COC(=O)N4)cc32)C1
Reply text: 9%

Inquiry: Look up and state reported Emax for CN(C)[C@H]1C[C@H](c2c[nH]c3ccc(CC4CNC(=O)O4)cc32)C1 (single isomer, unassigned; (+))
Reply text: 16%

Inquiry: Indicate the recorded Emax value for this molecule: CN(C)[C@H]1C[C@H](c2c[nH]c3ccc(CCN4C(=O)c5ccccc5C4=O)cc32)C1
Reply text: 48%

Inquiry: Consider the molecule CN1C(=O)OC[C@H]1Cc1ccc2[nH]cc([C@H]3C[C@H](N(C)C)C3)c2c1 and give its recorded Emax.
Reply text: 38%

----------
Entries annotated with measured EC50
Target: "5-HT1 -like" receptor mediating smooth muscle contraction (Oryctolagus cuniculus, UniProt P49144)
Construct: Right and left lateral saphenous veins were obtained from male New Zealand White Rabbits; from tissue; host or cells: rabbit lateral saphenous vein ring segments
Assay: Rabbit Saphenous Vein Assay (contraction of isolated ring segments)
Type: cell-based, male New Zealand White Rabbits
Kindly answer with a numeric value in nM, unit omitted.

MOLECULE	REPORTED METRIC	READOUT UNIT	QUANTITATIVE READOUT
CN(C)[C@H]1C[C@H](c2c[nH]c3ccc(C(N)=O)cc32)C1	EC50	nM	562

Inquiry: Report EC50, nothing else, for this molecule: N[C@H]1C[C@H](c2c[nH]c3ccc(C[C@H]4COC(=O)N4)cc32)C1 [Example 1 (trans), acetate]
Reply text: 380

----------
Listing of entries alongside the reported Kb.
Target: "5-HT1 -like" receptor mediating smooth muscle contraction (Oryctolagus cuniculus)
Construct: Right and left lateral saphenous veins were obtained from male New Zealand White Rabbits; from tissue; host or cells: rabbit lateral saphenous vein ring segments
Assay: Rabbit Saphenous Vein Assay (contraction of isolated ring segments)
Type: cell-based, male New Zealand White Rabbits
Details: antagonism, given where compounds were found to be antagonists
# unit: µM | format: bare number

These recorded examples may help you get a feel for the data.
MOLECULE	Kb [µM]
CN(C)[C@H]1C[C@H](c2c[nH]c3ccc(CN4C(=O)CNC4=O)cc32)C1 [Example 9]	9.33
CN(C)[C@H]1C[C@H](c2c[nH]c3ccc(CCN4C(=O)c5ccccc5C4=O)cc32)C1 [Example 7]	0.17
CN(C)[C@H]1C[C@H](c2c[nH]c3ccc(CC(=O)NCc4ccccc4)cc32)C1 [Example 26]	3.89
CC1(C)NC(=O)N(CCc2ccc3[nH]cc([C@H]4C[C@H](N)C4)c3c2)C1=O [Example 6]	2.69
CN(C)[C@H]1C[C@H](c2c[nH]c3ccc(C[C@@H]4COC(=O)N4)cc32)C1 [Example 11]	11.2

Inquiry: Quote Kb reported for CN(C)[C@H]1C[C@H](c2c[nH]c3ccc(C(=O)NCc4ccccc4)cc32)C1 [Example 23] please.
Reply text: 1.26

Inquiry: For the molecule Cc1noc(Cc2ccc3[nH]cc([C@H]4C[C@H](N(C)C)C4)c3c2)n1 [Example 27] , give its reported Kb.
Reply text: 759

Inquiry: Hello, please tell me recorded Kb for this one: CN(C)[C@H]1C[C@H](c2c[nH]c3ccc(CCN4C(=O)NC(C)(C)C4=O)cc32)C1 [Example 5]
Reply text: 0.891

Inquiry: Input CN(C)[C@H]1C[C@H](c2c[nH]c3ccc(CCN4C(=O)CNC4=O)cc32)C1 [Example 3] , output reported Kb.
Reply text: 1.91

Inquiry: For CN(C)[C@H]1C[C@H](c2c[nH]c3ccc(CN4C(=O)NC(C)(C)C4=O)cc32)C1 [Example 12] , write its Kb.
Reply text: 0.589

Inquiry: Name the recorded Kb of the item Cc1nc(Cc2ccc3[nH]cc([C@H]4C[C@H](N(C)C)C4)c3c2)n[nH]1 [Example 28] in your answer.
Reply text: 6.61

----------
Target: "5-HT1 -like" receptor mediating smooth muscle contraction (Oryctolagus cuniculus, UniProt P49144)
Construct: Right and left lateral saphenous veins were obtained from male New Zealand White Rabbits; from tissue; host or cells: rabbit lateral saphenous vein ring segments
Test: Rabbit Saphenous Vein Assay (contraction of isolated ring segments)
Assay type: cell-based, male New Zealand White Rabbits
Conditions: agonism; rabbit saphenous vein rings, 37° C., pH 7.4; compared to 5-HT; read-out: pA50 (converted)
Note to self: use met only for EC50 readings below 6 µM; a reading exactly at 6 µM still gets not met.

Reference set (5 entries):
MOLECULE	ASSIGNED CATEGORY
CN(C)[C@H]1C[C@H](c2c[nH]c3ccc(C[C@H]4COC(=O)N4)cc32)C1	met
CN1C(=O)OC[C@H]1Cc1ccc2[nH]cc([C@H]3C[C@H](N(C)C)C3)c2c1	not met
N[C@H]1C[C@@H](c2c[nH]c3ccc(C[C@H]4COC(=O)N4)cc32)C1 [Example 1 (cis)]	met
CN(C)[C@H]1C[C@@H](c2c[nH]c3ccc(C[C@H]4COC(=O)N4)cc32)C1	not met
CN(C)[C@H]1C[C@H](c2c[nH]c3ccc(CC4CNC(=O)O4)cc32)C1 (single isomer, unassigned; (+))	met

Pending molecule:
Inquiry: Say whether its EC50 is strictly beneath 6 µM. Entry: CN[C@H]1C[C@H](c2c[nH]c3ccc(C[C@H]4COC(=O)N4)cc32)C1
Reply text: met
